The measurements presented in this section are drawn from ChEMBL document CHEMBL1201862.

Could you please report measured IC50 for the items listed next?
study.system: SUMO-activating enzyme (Homo sapiens, UniProt Q9UBT2)
Sequence (Q9UBE0 whole entry): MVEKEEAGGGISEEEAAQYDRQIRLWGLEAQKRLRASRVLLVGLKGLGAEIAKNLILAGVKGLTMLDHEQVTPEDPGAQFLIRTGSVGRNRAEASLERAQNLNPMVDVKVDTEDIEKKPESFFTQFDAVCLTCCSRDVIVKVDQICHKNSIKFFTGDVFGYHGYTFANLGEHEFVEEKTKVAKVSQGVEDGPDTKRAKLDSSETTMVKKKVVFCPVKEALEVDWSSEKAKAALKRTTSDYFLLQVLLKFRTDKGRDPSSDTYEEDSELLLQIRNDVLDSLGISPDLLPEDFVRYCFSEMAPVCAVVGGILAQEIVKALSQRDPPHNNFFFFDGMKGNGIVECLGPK
Sequence (Q9UBT2 whole entry): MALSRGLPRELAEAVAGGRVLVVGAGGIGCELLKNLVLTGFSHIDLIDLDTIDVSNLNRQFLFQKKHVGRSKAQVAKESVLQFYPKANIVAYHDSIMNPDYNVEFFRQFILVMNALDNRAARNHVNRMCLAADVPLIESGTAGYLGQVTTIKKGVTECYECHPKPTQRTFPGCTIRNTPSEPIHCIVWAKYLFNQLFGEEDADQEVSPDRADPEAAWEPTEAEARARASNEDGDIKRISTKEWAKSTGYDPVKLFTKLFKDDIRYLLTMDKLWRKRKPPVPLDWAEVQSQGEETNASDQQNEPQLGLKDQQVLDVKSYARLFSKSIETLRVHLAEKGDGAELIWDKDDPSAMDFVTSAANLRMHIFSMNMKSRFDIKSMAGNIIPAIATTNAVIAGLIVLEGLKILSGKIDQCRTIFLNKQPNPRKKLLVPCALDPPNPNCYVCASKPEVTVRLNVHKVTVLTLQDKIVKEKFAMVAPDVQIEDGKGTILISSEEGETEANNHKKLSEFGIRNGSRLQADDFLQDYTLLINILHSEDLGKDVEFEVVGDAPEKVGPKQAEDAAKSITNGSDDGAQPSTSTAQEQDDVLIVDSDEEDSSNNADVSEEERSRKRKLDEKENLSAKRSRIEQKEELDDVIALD
test.name: SUMOylation inhibitor hit validation, confirmation, SUMOylation inhibitor project, biochemical, AlphaScreen (AID 2018)
Format: functional
Active and inactive are the calls of the source.

Guide cases for IC50, answers given:
- chemical.string: "CCc1ccc2nc(NC(=O)c3ccc4c(O)nc(CN5CCOCC5)nc4c3)sc2c1"
  IC50: "7.19 µM (active)"
- chemical.string: "Cc1c(NC(=S)N/N=C/c2cc([N+](=O)[O-])ccc2O)c(=O)n(-c2ccccc2)n1C"
  IC50: "1.64 µM (active)"
- chemical.string: "COc1ccccc1NC(=O)c1sc2ncn(CC(=O)Nc3ccccc3)c(=O)c2c1C"
  IC50: "20.4 µM (active)"

Turning to the following compound.
q: Report IC50 for O=[N+]([O-])c1cccc(S(=O)(=O)Nc2nc3ccccc3nc2Nc2cccc(S(=O)(=O)N3CCCCC3)c2)c1 please.
a: 4.59 µM (active)

---

test.name: growth suppression of beta-catenin-knockout colon cells, dose response, cell-based, HCT116, human colon tumor (AID 1045);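 note: HCT116 colon tumor cells with beta catenin knocked out; cells exposed to compound for 60 hours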
Assay type: functional
Activity calls are given as the source filed them.
experimental.endpoint: EC50

Guide cases for EC50, answers given:
- compound: "CC(=O)Oc1c(C)cc(Cl)cc1C(=O)Nc1ccc([N+](=O)[O-])cc1Cl"
  recorded.value: "2.16 µM (active)"
- compound: "CCCOc1ccc(C(=O)C(CN2CCCC2)c2ccccc2)cc1 (centres undefined)"
  recorded.value: "1.96 µM (active)"

Fill in EC50 for each of the 2 compounds listed.
1. Cc1cc(C)nc(/N=c2/ssnc2Cl)c1
2. CN1CCN(Cc2cc(COCc3ccccc3)c3cccnc3c2O)CC1

a:
25.8 µM (active)
3.23 µM (active)

---

test.name: CRF-BP/CRF-R2 complex antagonists, dose response, cell-based, uHTS hits, 384-well (AID 651639)
Format: functional, Homo sapiens
run.conditions: read-out: IC50_Mean
The source made the active and inactive calls.
// classify into yes (1) for active, no (0) for inactive

These recorded examples may help you get a feel for the data.
- molecule: "COc1ccc(C(C(=O)NC2CCCC2)N(C(=O)c2ccoc2C)c2cc(C)cc(C)c2)cc1 (centres undefined)"
  assigned.label: "no (0)"
- molecule: "Cc1ccccc1NC(=O)Cc1nc(COC(=O)c2cc([N+](=O)[O-])ccc2NCCO)cs1"
  assigned.label: "yes (1)"
- molecule: "Cc1ccc(S(=O)(=O)c2nnn3c2nc(N2CCCCC2)c2ccccc23)cc1"
  assigned.label: "yes (1)"

Please find the next molecule below.
q: Just curious, what result did CCOc1ccc(/C=C2\SC(=S)N(NS(=O)(=O)c3ccc(C)cc3)C2=O)cc1OC get here?
a: no (0)

---

study.system: Methionyl-tRNA synthetase, putative (Trypanosoma brucei brucei, UniProt Q38C91);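 note: Read-out by fluorescence polarization, run as a confirmatory high-throughput counterscreen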;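 note: potency of MetRS inhibitors measured by reduced AMP formation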
Sequence (Q38C91 whole entry): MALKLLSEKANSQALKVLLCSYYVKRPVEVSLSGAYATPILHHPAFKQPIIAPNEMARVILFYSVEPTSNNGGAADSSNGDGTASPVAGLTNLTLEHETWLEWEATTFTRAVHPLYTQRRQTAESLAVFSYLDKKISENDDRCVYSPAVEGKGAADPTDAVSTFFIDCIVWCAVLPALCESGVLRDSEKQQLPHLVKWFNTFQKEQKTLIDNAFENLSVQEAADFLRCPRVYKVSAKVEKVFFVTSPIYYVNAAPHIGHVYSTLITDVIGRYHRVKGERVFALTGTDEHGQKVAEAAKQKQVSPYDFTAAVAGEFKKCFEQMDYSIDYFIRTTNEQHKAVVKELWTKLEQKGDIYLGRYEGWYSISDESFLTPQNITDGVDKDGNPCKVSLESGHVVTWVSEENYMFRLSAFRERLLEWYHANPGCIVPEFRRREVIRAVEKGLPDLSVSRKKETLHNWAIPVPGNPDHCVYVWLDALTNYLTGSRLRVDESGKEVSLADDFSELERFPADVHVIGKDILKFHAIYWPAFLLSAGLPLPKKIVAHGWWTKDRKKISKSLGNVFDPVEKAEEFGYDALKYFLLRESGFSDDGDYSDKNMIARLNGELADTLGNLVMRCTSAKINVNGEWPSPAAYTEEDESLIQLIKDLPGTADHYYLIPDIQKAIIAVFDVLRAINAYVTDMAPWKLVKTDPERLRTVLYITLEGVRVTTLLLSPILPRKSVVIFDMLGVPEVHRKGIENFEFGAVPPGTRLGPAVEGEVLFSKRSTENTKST
Assay type: functional, Trypanosoma brucei brucei strain 927/4 GUTat10.1
The source made the active and inactive calls.
Could you please report measured IC50 for the items listed next?

Guide cases for IC50, answers given:
- compound: "O=S(=O)(Nc1cc2nc3ccccc3nc2n1Cc1ccccc1)c1ccc(Cl)cc1"
  study.system: "Methionyl-tRNA synthetase, putative (Trypanosoma brucei brucei, UniProt Q38C91)"
  experimental.endpoint: "IC50"
  recorded.value: "4.93 µM (active)"
- compound: "CCN(CC)C(=O)C(=O)c1cn(CC(=O)NCc2ccc3c(c2)OCO3)c2ccccc12"
  study.system: "Methionyl-tRNA synthetase, putative (Trypanosoma brucei brucei, UniProt Q38C91)"
  experimental.endpoint: "IC50"
  recorded.value: "14.4 µM (inactive)"
- compound: "c1ccc2c3c([nH]c2c1)-c1n[nH]cc1CC3"
  study.system: "Methionyl-tRNA synthetase, putative (Trypanosoma brucei brucei, UniProt Q38C91)"
  experimental.endpoint: "IC50"
  recorded.value: "26.7 µM (inactive)"
- compound: "NS(=O)(=O)c1ccc(CCNC(=O)c2cc(-c3cc(Cl)ccc3O)n[nH]2)cc1"
  study.system: "Methionyl-tRNA synthetase, putative (Trypanosoma brucei brucei, UniProt Q38C91)"
  experimental.endpoint: "IC50"
  recorded.value: "119 µM (inactive)"
- compound: "Cc1[nH]c2ccccc2c1/C=N/Nc1nc2ccccc2[nH]1"
  study.system: "Methionyl-tRNA synthetase, putative (Trypanosoma brucei brucei, UniProt Q38C91)"
  experimental.endpoint: "IC50"
  recorded.value: "17.1 µM (inactive)"

q: Reported IC50 for Methionyl-tRNA synthetase, putative (Trypanosoma brucei brucei, UniProt Q38C91), given OC(c1cc(Cl)cc(Cl)c1)c1nc(-c2ccccc2C(F)(F)F)c[nH]1 (stereo unspecified) ?
a: 4.05 µM (active)

---

study.system: UniProt P41145
Sequence (P41145 whole entry): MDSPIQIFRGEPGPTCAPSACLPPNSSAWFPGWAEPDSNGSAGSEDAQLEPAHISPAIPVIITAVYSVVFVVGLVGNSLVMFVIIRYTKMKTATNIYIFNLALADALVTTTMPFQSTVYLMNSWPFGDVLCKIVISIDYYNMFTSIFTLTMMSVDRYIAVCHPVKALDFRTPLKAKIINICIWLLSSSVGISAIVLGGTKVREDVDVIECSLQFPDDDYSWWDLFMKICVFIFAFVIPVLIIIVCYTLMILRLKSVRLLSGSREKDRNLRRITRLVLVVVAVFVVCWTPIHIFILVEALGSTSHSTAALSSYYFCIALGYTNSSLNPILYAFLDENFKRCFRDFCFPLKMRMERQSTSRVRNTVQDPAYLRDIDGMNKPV
Type: functional
experimental.endpoint: EC50
Note: a bare number is incomplete; add the unit.

q: Report EC50 for Cc1cccc(-n2ccnc2CN2CCC(CO)(Cc3ccccc3)CC2)c1 please.
a: 5.69 µM

---

Could you please report measured AC50 for the items listed next?
study.system: Cytochrome P450 1A2 (Homo sapiens, UniProt P05177);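 note: PubChem cytochrome P450 panel assay, CYP1A2 panel member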
Sequence (P05177 whole entry): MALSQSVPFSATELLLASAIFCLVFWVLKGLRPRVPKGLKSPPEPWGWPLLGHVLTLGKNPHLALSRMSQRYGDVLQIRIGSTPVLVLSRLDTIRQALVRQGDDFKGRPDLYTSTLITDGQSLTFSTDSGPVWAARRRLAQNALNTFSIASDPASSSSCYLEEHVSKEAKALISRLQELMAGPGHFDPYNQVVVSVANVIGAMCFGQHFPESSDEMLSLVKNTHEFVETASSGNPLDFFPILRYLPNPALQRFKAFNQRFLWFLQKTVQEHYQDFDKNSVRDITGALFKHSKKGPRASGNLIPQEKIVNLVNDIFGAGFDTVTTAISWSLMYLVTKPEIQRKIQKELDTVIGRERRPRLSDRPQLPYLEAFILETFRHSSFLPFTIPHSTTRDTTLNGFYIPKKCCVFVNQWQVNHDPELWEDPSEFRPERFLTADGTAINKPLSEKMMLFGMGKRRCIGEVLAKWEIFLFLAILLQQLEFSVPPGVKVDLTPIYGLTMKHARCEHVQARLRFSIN

Guide cases for AC50, answers given:
- compound: "CC(C)(C(=O)c1cccnc1)c1cccnc1"
  recorded.value: "12.6 µM (inconclusive)"
- compound: "CNc1ncncc1-c1ccc(C(=O)N(C)C)cc1"
  recorded.value: "15.8 µM (inconclusive)"
- compound: "CN(CC(=O)Nc1cccc2c1CCCC2)S(=O)(=O)c1ccc(Br)cc1"
  recorded.value: "10 µM (inconclusive)"
- compound: "COc1ccc(-c2noc(CCCC(=O)NCCc3ccccc3)n2)cc1OC"
  recorded.value: "15.8 µM (inconclusive)"
- compound: "FC(F)(F)c1ccccc1-c1ccc2ncnc(NC3CCNCC3)c2c1"
  recorded.value: "20 µM (inconclusive)"
- compound: "COc1ccc(/N=C/c2ccc(CNS(=O)(=O)c3ccc(Cl)cc3)o2)cc1"
  recorded.value: "25.1 µM (inconclusive)"
- compound: "CCOc1ccc2c(ccc(/C=C/c3cc(C)c4cccnc4c3O)[n+]2C)c1"
  recorded.value: "6.31 µM (inconclusive)"
- compound: "O=c1c(-c2ccc(Cl)cc2)nc2cnc(N3CCOCC3)nc2n1C1CC1"
  recorded.value: "1.26 µM (inconclusive)"

Fill in AC50 for each of the 8 compounds listed.
1. Cc1cc2c(cc1C)-c1nnc(-c3ccc4ccccc4n3)n1C(C)(C)C2
2. Cc1nc2c(ccc3nc(NC(=O)c4ccc(S(=O)(=O)N(C)C)cc4)sc32)s1
3. COc1cc(-c2nnc(SCC(=O)Nc3ccc4c(c3)OCCO4)o2)cc(OC)c1OC
4. COc1ccccc1N1CCN(C(=O)C(NS(=O)(=O)c2cccs2)c2ccccc2)CC1 (centres undefined)
5. CN1CCN(c2ncc3ncc(=O)n(Cc4ccc(F)cc4)c3n2)CC1
6. Cc1cc(C)nc(SCC(=O)Nc2ccccc2[N+](=O)[O-])n1
7. CCCOc1ccccc1C1CC(=O)NC(C)=C1C(=O)OCC(C)C (centres undefined)
8. N[C@@](C(=O)O)(c1ccc(P(=O)(O)O)cc1)C1CC1

a:
1: 5.01 µM (inconclusive); 2: 3.16 µM (inconclusive); 3: 15.8 µM (inconclusive); 4: 2.51 µM (inconclusive); 5: 25.1 µM (inconclusive); 6: 17.8 µM (inconclusive); 7: 11.2 µM (inconclusive); 8: 50.1 µM (inconclusive)

Fill in AC50 for each of the 3 compounds listed.
1. c1cncc(-c2nnc3n2C2(CCCCC2)Cc2ccccc2-3)c1
2. Cc1ccc2c(c1)NCC(C(=O)NC1CCCCC1)O2 (centres undefined)
3. CCc1cc2c(=O)c(-c3cnn(-c4ccccc4)c3)coc2c(CN2CCOCC2)c1O

a:
1. 39.8 µM (inconclusive)
2. 11.2 µM (inconclusive)
3. 15.8 µM (inconclusive)

---

test.name: cells
Assay type: functional
Active and inactive are the calls of the source.
Could you please report measured IC50 for the items listed next?

- chemical.string: "CC(C)OC(=O)COc1ccc(-c2ccccc2)cc1"
  recorded.value: "6.13 µM (active)"
- chemical.string: "CC(=O)Oc1c(C)cc(Cl)cc1C(=O)Nc1ccc([N+](=O)[O-])cc1Cl"
  recorded.value: "9.46 µM (active)"
- chemical.string: "Clc1cccc(-c2ccc(CNCc3ccccn3)o2)c1"
  recorded.value: "3.05 µM (active)"
- chemical.string: "CC(C)(C)NC(=O)c1ccc(NC(=O)c2ccccc2-c2ccccc2C(=O)O)cc1"
  recorded.value: "6.42 µM (active)"
- chemical.string: "CC1CCN(CCc2nc3cc(NC(=O)COc4ccc(Cl)cc4)ccc3n2C)CC1"
  recorded.value: "28.1 µM (active)"

q: Report IC50 for Cc1cccc(Cn2ccc(NC(=O)c3ccc4c(c3)OCO4)n2)c1 please.
a: 2.33 µM (active)

---

study.system: Large T antigen (Simian virus 40);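 note: Confirmatory-stage PubChem screen for compounds that inhibit SV40 T antigen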
Sequence (P03070 whole entry): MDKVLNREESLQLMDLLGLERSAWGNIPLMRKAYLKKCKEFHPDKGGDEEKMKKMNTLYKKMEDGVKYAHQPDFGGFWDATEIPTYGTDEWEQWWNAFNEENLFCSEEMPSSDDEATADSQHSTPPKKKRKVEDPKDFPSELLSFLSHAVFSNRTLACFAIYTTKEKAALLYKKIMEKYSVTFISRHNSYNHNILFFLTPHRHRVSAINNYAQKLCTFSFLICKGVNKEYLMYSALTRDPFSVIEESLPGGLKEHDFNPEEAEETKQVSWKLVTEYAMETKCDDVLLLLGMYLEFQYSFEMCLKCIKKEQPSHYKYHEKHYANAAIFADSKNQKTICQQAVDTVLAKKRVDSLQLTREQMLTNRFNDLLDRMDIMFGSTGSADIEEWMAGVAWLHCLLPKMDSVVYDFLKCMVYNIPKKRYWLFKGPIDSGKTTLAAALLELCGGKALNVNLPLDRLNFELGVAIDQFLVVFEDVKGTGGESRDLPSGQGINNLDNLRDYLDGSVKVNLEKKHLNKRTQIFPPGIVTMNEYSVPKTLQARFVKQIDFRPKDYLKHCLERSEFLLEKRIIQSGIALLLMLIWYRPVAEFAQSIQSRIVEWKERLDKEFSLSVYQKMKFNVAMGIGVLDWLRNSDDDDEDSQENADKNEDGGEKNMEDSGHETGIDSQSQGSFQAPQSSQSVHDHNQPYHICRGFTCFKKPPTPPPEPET
Assay type: functional, Betapolyomavirus macacae
Activity calls are given as the source filed them.
Could you please report measured IC50 for the items listed next?

- compound: "Nc1cnc(Nc2ccc(Br)cc2)nc1N"
  recorded.value: "22.3 µM (active)"
- compound: "COc1ccc(/C=N/NC(=O)c2ccoc2C)cc1O"
  recorded.value: "9.6 µM (active)"
- compound: "O=C1c2ccccc2NC2(CCCCC2)N1c1ccc(O)cc1"
  recorded.value: "12.5 µM (active)"
- compound: "Cc1cc(C)nc(SSc2nc(C)cc(C)n2)n1"
  recorded.value: "28.2 µM (active)"
- compound: "Cn1sc(=O)c2cc(S(=O)(=O)NC3CC3)ccc21"
  recorded.value: "57.3 µM (active)"
- compound: "Oc1ccc(/C=N/NC(=S)Nc2cccnc2)cc1"
  recorded.value: "19.4 µM (active)"
- compound: "COc1ccc(NC2SC(=O)N(C)C2=O)cc1 (configuration not stated)"
  recorded.value: "80.8 µM (active)"
- compound: "O=C(O)[C@H]1CCCC[C@H]1C(=O)Nc1ccc(Nc2ccccc2)cc1"
  recorded.value: "9.46 µM (active)"
- compound: "COc1cc(/C=C/C(=O)OCC(=O)N2CC(=O)Nc3ccccc32)ccc1O"
  recorded.value: "12.6 µM (active)"
- compound: "CC(=O)N(c1ccc2oc(=O)sc2c1)S(=O)(=O)c1ccccc1"
  recorded.value: "30.3 µM (active)"

Fill in IC50 for each of the 2 compounds listed.
1. O=C(CSc1cccc2cccnc12)N/N=C/c1ccc(O)cc1
2. O=Cc1coc2c(ccc3ccccc32)c1=O

a:
11.6 µM (active)
9.01 µM (active)
